# target-system: T1, recombinant human CD40-Fc (human, UniProt P25942 21-193)
# T1 construct: also called soluble recombinant human CD40/Fc chimera from R&D Systems; not shown: The antibody Fc domain of the R&D Systems chimera and any linker to it
# T1 sequence (P25942 21-193 limits assumed, form in doubt): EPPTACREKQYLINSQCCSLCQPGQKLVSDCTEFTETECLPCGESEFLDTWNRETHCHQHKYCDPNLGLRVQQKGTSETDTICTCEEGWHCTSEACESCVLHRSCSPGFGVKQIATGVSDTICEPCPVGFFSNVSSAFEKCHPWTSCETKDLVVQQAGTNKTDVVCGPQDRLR
# test-name: ELISA on coated recombinant human CD40-Fc, detection anti-human IgG F(ab')2-HRP, OD 450-650
reported-endpoint: EC50 (read off the curve)

Enquiry: Bench note: what EC50 (read off the curve) did anti-CD40 human monoclonal antibody 3C3 (antibody, human IgG2, kappa, V domains shown, Human IgG2, C-terminal lysine removed; also called anti-CD40 mAb 3C3; CD40 antibody 3C3) VH: QVQLVESGGGVVQPGRSLRLSCAGSGFIFSRYGMYWVRQAPGKGLEWVAVIWYDGSYKYYADSVKGRFTISRDNSKNTLYLQMNSLRAEDTAVYYCARESPWYYFDYWGQGTLVTVSS VL: DIQMTQSPSSLSASVGDRVTITCRASQGISNYLAWYQQKPGKVPKLLIYAASTLQSGVPSRFSGSGSGTDFTLTISSLQPEDVATYYCQKYKSAPFTFGPGTKVDIKR show?
Return: ~0.4 nM
